Below, each of the compounds is paired with its reported viability, T/C value.
system: 475296-252-R-J1-PDC spheroid viability; assay: Anticancer human tumor 475296-252-R-J1-PDC patient-derived rectal carcinoma cell line growth inhibition [PI3K]; conditions: second compound 0.00316 µM; first compound 0.0316 µM; active compounds read low; spheroids with HUVEC and MSC
measure: viability, T/C (%)

1) Cn1nccc1Nc1nccc(-c2ccn(C(CO)c3ccc(Cl)c(F)c3)c(=O)c2)n1 (stereo not given) + CC(Nc1ccc2c(c1)OCCn1cc(N3C(=O)OCC3C(F)F)nc1-2)C(N)=O = 92.9
2) CC1(C)CCC(CN2CCN(c3ccc(C(=O)NS(=O)(=O)c4ccc(NCC5CCOCC5)c([N+](=O)[O-])c4)c(Oc4cnc5[nH]ccc5c4)c3)CC2)=C(c2ccc(Cl)cc2)C1 + CC(Nc1ccc2c(c1)OCCn1cc(N3C(=O)OCC3C(F)F)nc1-2)C(N)=O = 109
3) CNC(=O)c1ccc(N2C(=S)N(c3ccc(C#N)c(C(F)(F)F)c3)C(=O)C2(C)C)cc1F + COc1c(OCCCN2CCOCC2)ccc2c3n(c(=NC(=O)c4cnc(N)nc4)nc12)CCN3 = 99.1
4) C[C@@H](NC(=O)c1ncnc(N)c1Cl)c1ncc(C(=O)Nc2cc(C(F)(F)F)c(Cl)cn2)s1 + COc1c(OCCCN2CCOCC2)ccc2c3n(c(=NC(=O)c4cnc(N)nc4)nc12)CCN3 = 82.4
5) CC(C)NCC(C(=O)N1CCN(c2ncnc3c2C(C)CC3O)CC1)c1ccc(Cl)cc1 (stereo not given) + CC(Nc1ccc2c(c1)OCCn1cc(N3C(=O)OCC3C(F)F)nc1-2)C(N)=O = 85.7

---

tested on: 475296-252-R-J1-PDC spheroid viability; assay: Anticancer human tumor 475296-252-R-J1-PDC cell line growth inhibition [PI3K]; details: second compound 3.16 µM; first compound 1 µM; active compounds read low; spheroids with HUVEC and MSC;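 further: spheroids exposed to agents for seven days before readout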
Below, each of the compounds is paired with its reported viability, T/C value.
measure: viability, T/C (%)

1) Cn1ncc(Cl)c1-c1cc(C(=O)NC(CN)Cc2cccc(F)c2)sc1Cl (stereo unspecified) + Cc1nc(NC(=O)N2CCCC2C(N)=O)sc1-c1ccnc(C(C)(C)C(F)(F)F)c1 = 67
2) CC(Cn1ccc(-c2ccc(C#N)c(Cl)c2)n1)NC(=O)c1cc(C(C)O)[nH]n1 (stereo unspecified) + CC(Nc1ncnc2nc[nH]c12)c1cc2cccc(Cl)c2c(=O)n1-c1ccccc1 = 92.2
3) CNC(=O)c1ccc(N2C(=S)N(c3ccc(C#N)c(C(F)(F)F)c3)C(=O)C2(C)C)cc1F + Cc1nc(NC(=O)N2CCCC2C(N)=O)sc1-c1ccnc(C(C)(C)C(F)(F)F)c1 = 98.1
4) C[C@@H](NC(=O)c1ncnc(N)c1Cl)c1ncc(C(=O)Nc2cc(C(F)(F)F)c(Cl)cn2)s1 + CC(Nc1ncnc2nc[nH]c12)c1cc2cccc(Cl)c2c(=O)n1-c1ccccc1 = 102
5) CC(Cn1ccc(-c2ccc(C#N)c(Cl)c2)n1)NC(=O)c1cc(C(C)O)[nH]n1 (stereo unspecified) + Cc1nc(NC(=O)N2CCCC2C(N)=O)sc1-c1ccnc(C(C)(C)C(F)(F)F)c1 = 105
6) CCCS(=O)(=O)Nc1ccc(F)c(C(=O)c2c[nH]c3ncc(-c4ccc(Cl)cc4)cc23)c1F + Cc1nc(NC(=O)N2CCCC2C(N)=O)sc1-c1ccnc(C(C)(C)C(F)(F)F)c1 = 92
